- Tested on: MOLT-4 leukemia
- experiment: NCI tumour cell line growth inhibition, 48 h
readout-name: TGI

Here is how some molecules turned out for TGI.
Exam item: Consider the molecule shown here: `O=C1CCN2C(=O)CCN12` What is its recorded TGI?
Marked response: > 100 µM

Exam item: Here is the next molecule: `O=C1OC(c2ccccc2)=N/C1=C\c1cccc2ccccc12`
Marked response: > 100 µM

Exam item: Can you handle CC(C)C(Nc1c2ccccc2nc2ccccc12)C(=O)O (configuration not stated) next?
Marked response: > 100 µM

Next:
Exam item: Fill in: TGI of `CCN(CC)C(=S)N/N=C(/C)c1cccc(/C(C)=N\NC(=S)N(CC)CC)n1` is ___
Marked response: 5.77 µM

Exam item: Also `CCCN1CCC(=O)N(CCC(F)(F)C(F)(F)C(F)(F)C(F)(F)C(F)(F)C(F)(F)F)C1=S` ?
Marked response: > 100 µM

Exam item: Again, but for `O=C1/C(=N/O)Cc2c(Br)ccc(Br)c21`
Marked response: 82.4 µM

Exam item: What do we get for COC(C(O)CO)C(O)C(O)C(=O)NNc1ccccc1 (configuration not stated) ?
Marked response: > 100 µM

Exam item: `COc1cc(Cn2c3c(c4cc(O)ccc42)Cc2ccccc2C3=O)cc(OC)c1` ?
Marked response: > 100 µM

Exam item: Entry `O=C(N/N=C\c1cccc2c([N+](=O)[O-])cccc12)Nc1ccccc1` please
Marked response: 41.7 µM

Exam item: How about Cc1cccc(NC(=O)/C(=N\NC(C)(C)C)C2NC(=S)NC2=O)c1C (configuration not stated) ?
Marked response: > 100 µM

Exam item: Now this one: `COc1cc2c3c(n(CCCNC(=O)OCC4c5ccccc5-c5ccccc54)c(=O)c2cc1OC)-c1cc2c(cc1/C3=C\CCNC(=O)OCC1c3ccccc3-c3ccccc31)OCO2`
Marked response: > 50 µM

Exam item: Next: `COC1=CC(=O)c2nc(-c3cccc(C)n3)[nH]c2C1=O`
Marked response: > 100 µM

Exam item: Same read-out for `CCOC(=O)[C@@H](N)CCC(=O)N[C@@H](CSCc1ccccc1)C(=O)N[C@@H](C(=O)OCC)c1ccccc1` ?
Marked response: > 71.4 µM

* * *

- System: MDA-MB-231 breast
- experiment: NCI tumour cell line growth inhibition, 48 h; in the data active = GI50 below about 0.43 µM; inactive = the rest
// classify into True = active, False = inactive

// below: answered compounds
Exam item: Please state the recorded outcome for this compound: `COc1nc2ccccc2cc1-c1nc2c(cnn2-c2ccc(Br)cc2)c(=O)[nH]1`
Marked response: True

Exam item: // repeat for `CCOC(=O)c1c(C)n(Cc2ccc(Cl)cc2Cl)c2c1c(CN(C)C)c(O)c1[nH]cnc12` and report
Marked response: False

Exam item: Continue with `O=C(NC1=CC(=O)c2ccccc2C1=O)c1ccccc1`
Marked response: True

Continuing:
Exam item: I would be grateful if you could indicate the recorded call for `NS(=O)(=O)c1ccc(N=Nc2c(O)[nH]c3ccc(-c4cnco4)cc23)cc1` .
Marked response: False

Exam item: What would you report for `C[C@@]12CC=C3c4nc(Nc5cccc(O)c5)sc4CC[C@]3(C)[C@H]1CC[C@]1(C)C(=O)CC[C@@H]21` ?
Marked response: False

Exam item: Check `CCOC(=O)[C@@H](N)CCC(=O)N[C@@H](CSCc1ccccc1)C(=O)N[C@@H](C(=O)OCC)c1ccccc1` too.
Marked response: False

Exam item: Okay, and `Cc1cccc(N2CCN(C(=S)c3ccc4c(c3)OCO4)CC2)c1` ?
Marked response: False

* * *

- Test system: MCF7 breast
- experiment: NCI tumour cell line growth inhibition, 48 h; in the data active = GI50 below about 0.43 µM; inactive = the rest
Respond with a class label; see true (1) (active), false (0) (inactive)

Some entries whose results are on file:
Exam item: Test call for this molecule, please: `CCCCCCCC/C=C/CCCCCCCC(=O)OC[C@H]1O[C@@H](n2ccc(N)nc2=O)C(F)(F)[C@@H]1O`
Marked response: true (1)

Exam item: Try this molecule too: `COC(=O)C1=CNC=C(C(=O)OC)C1C1=CC(=O)C(C)=CC1=O`
Marked response: false (0)

Exam item: Try this molecule too: `Cc1cc(S(=O)(=O)Nc2nnc(-c3ccccc3)c(-c3ccccc3)n2)c(SCC(N)=O)cc1Cl`
Marked response: false (0)

Exam item: Cool, now `O=C(N/N=C/c1ccc(Cl)cc1)c1ccc(C(F)(F)F)nc1Nc1cccc(C(F)(F)F)c1`
Marked response: false (0)

Moving on to the next molecule.
Exam item: Which result was noted for this molecule in the test: `CC(C)(C)c1cc(C(C)(C)C)cc(S(=O)(=O)Nc2cc3ccccc3cc2C(=O)NCCN)c1`
Marked response: false (0)

* * *

- System: K-562 leukemia
- experiment: NCI tumour cell line growth inhibition, 48 h; in the data active = GI50 below about 0.43 µM; inactive = the rest
A correct response names exactly one class from active, inactive

Exam item: Kindly provide the recorded test outcome for the following molecule: `CC(=O)[O-].CCN(CC)c1ccc(C=NCCN=Cc2ccc(N(CC)CC)cc2[O-])c([O-])c1.[Mn+3]`
Marked response: inactive

Exam item: Another molecule to look at: `COC(=O)[C@@H](C)CNS(=O)(=O)N(c1cc(C(F)(F)F)cc(C(F)(F)F)c1)C1CCN(Cc2ccc(F)cc2)CC1`
Marked response: inactive

Next:
Exam item: Dear colleague, could you share the recorded outcome for `CC(C)n1nc(-c2cc3cc(O)ccc3[nH]2)c2c(N)ncnc21` when you have a moment?
Marked response: inactive

Exam item: Lookup `Cc1cc(C(=O)Nc2ncc(Cc3cccc(C(F)(F)F)c3)s2)c2ccccc2n1`
Marked response: active

* * *

- Tested on: HOP-92 NSCLC
- experiment: NCI tumour cell line growth inhibition, 48 h; in the data active = GI50 below about 0.43 µM; inactive = the rest
Classes to choose from: active, inactive

Exam item: GET /call?item= `COc1ccccc1CNCCCN1C(=O)c2ccc3c4c(ccc(c24)C1=O)C(=O)N(CCCOCCCCOCCCN)C3=O` returns the recorded outcome of this test.
Marked response: inactive

Exam item: Also need `CC(C)n1nc(-c2cc3cc(O)ccc3[nH]2)c2c(N)ncnc21` , thanks.
Marked response: active

Exam item: Quick one: O=C1OC(C(O)CO)C(=O)C1=O (configuration not stated)
Marked response: inactive

Exam item: Entry `COC(=O)[C@H](C)NC(=O)NC(=O)NC(=O)CI` please
Marked response: inactive

Exam item: Again, but for `COc1ccc(Nc2c3ccccc3nc3occc23)cc1`
Marked response: inactive

Exam item: Input `Cc1cccc(N2CCN(C(=S)c3ccc4c(c3)OCO4)CC2)c1`
Marked response: inactive

New cases:
Exam item: Identify the outcome logged in this assay for the molecule shown: `CCOC(=O)[C@@H](N)CCC(=O)N[C@@H](CSCc1ccccc1)C(=O)N[C@@H](C(=O)OCC)c1ccccc1`
Marked response: inactive

* * *

- Test system: MOLT-4 leukemia
- experiment: NCI tumour cell line growth inhibition, 48 h
Each item that follows carries a reported GI50.

Guide cases for GI50, answers given:
Exam item: Which GI50 value is on record for CCCCC(O)(c1ccc(Cl)cc1)C(CN1CCOCC1)c1ccc(Cl)cc1 (configuration not stated) ?
Marked response: 10.7 µM

Exam item: Let us now turn to `COc1ccccc1CNCCCN1C(=O)c2ccc3c4c(ccc(c24)C1=O)C(=O)N(CCCOCCCCOCCCN)C3=O`
Marked response: 0.538 µM

Exam item: Next molecule: CNc1ccc(C(=O)CC(O)CCC(C)C2OC(=O)CC(O)CC(=O)CC(O)CC(O)CC(O)CC(O)CC3(O)CC(O)C(C(=O)OC)C(CC(O[C@@H]4O[C@H](C)[C@@H](O)[C@H](N)[C@@H]4O)/C=C/C=C/C=C/C=C/C=C/C=C/C=C/C2C)O3)cc1 (some centres not stated)
Marked response: 2.62 µM

Exam item: Also `CN(C)C(=O)c1cc2cnc(Nc3ccc(-c4csc5c(=S)cc(N6CCOCC6)oc45)cc3)nc2n1C1CCCC1` , if possible.
Marked response: 0.244 µM

Exam item: Then what about the molecule c1cc(CNC23CC4CC(CC(C4)C2)C3)cc(C[N+](Cc2cccc(CNC34CC5CC(CC(C5)C3)C4)c2)(Cc2cccc(CNC34CC5CC(CC(C5)C3)C4)c2)Cc2cccc(CNC34CC5CC(CC(C5)C3)C4)c2)c1 (configuration not stated) ?
Marked response: 5.52 µM

Exam item: One more molecule: `COc1cc(/C=C/c2cc(/C=C/c3ccc(O)c(OC)c3)n(C(=O)Nc3ccc(F)c(Cl)c3)n2)ccc1O`
Marked response: 0.282 µM

Exam item: Please do the same for `C=C1C(=O)O[C@H]2[C@H]1CC/C(COC(=O)C(=O)c1cn(Cc3ccccc3)c3ccccc13)=C\CC[C@@]1(C)O[C@@H]21` as well.
Marked response: 2.35 µM

Exam item: Then `COc1ccc(Nc2c3ccccc3nc3occc23)cc1` ?
Marked response: 1.55 µM

***
Exam item: Form field: reported GI50 of `Cc1ccc(C(=O)CN(/C=C/C(=O)C(F)(F)F)c2ccc(S(N)(=O)=O)cc2)cc1`
Marked response: 44 µM

Exam item: Same thing, different molecule: O=C1OC(C(O)CO)C(=O)C1=O (configuration not stated)
Marked response: 4120 µM

Exam item: Try this molecule next: CCC[CH2][Sn]1([CH2]CCC)[O]CC(CN2CCCC2)[O]1 (configuration not stated)
Marked response: 14.3 µM

Exam item: Param item: `CCOC(=O)c1c(C)n(Cc2ccc(Cl)cc2Cl)c2c1c(CN(C)C)c(O)c1[nH]cnc12`
Marked response: 0.908 µM
